# target: HLA-DRB1*0802 (DR8w2) (Homo sapiens, UniProt P01903+P01911, A100R/A103L/A169T/F76Y/H45Y/I96F/K41T/L162R/M171V/P40S/Q125H/Q178H/Q39Y/Q99D/R218S/R42G/S66Y/V115G/W38E)
# Construct: endogenous in cells
# test.summary: biochemical
# Format: binding
No end group written: not given here.
Below is a list of entries, each paired with its recorded pIC50 value.
Scale: pIC50 equals -log10([C]), with [C] in mol/L.

Sample answers from the record:
QHLLQLTVWGIKQLQ [Peptide 27.0297]; 6.04
QKQITKIQNFRVYYR [Peptide 27.0377]; 7.12

IN: Consider the sequence HSNWRAMASDFNLPP [Peptide 27.0364] and give its measured pIC50.
OUT: 5.71

====

# target: HLA-A*0201 (Homo sapiens, UniProt P04439, D140Y/D185E/D98H/E176V/E277Q/G131W/G231S/I119V/I121R/I166T/I218V/L300P/L318F/N151K/N90K/P208A/P217A/Q86G/Q94H/R138H/R169H/T345S)
# test.summary: purified HLA class I binding assay, A*0201
# reported.conditions: Table VIII, HIV A02 supermotif peptides; unit not given
Below is a list of entries, each paired with its recorded A*0201 (binding information) value.
Just the number, please, no unit after it.

Sample answers from the record:
IILKTAVQMAV; 0.0005
EILKEPVIIGV; 0.0007
LYSAGIRKYL; 0.0002
KIEELRQIILL; 0.0002
ATWIPCWEFV; 0.0013

The record that follows has no A*0201 (binding information) shown yet.
IN: Consider the sequence IVASCDKCQL and give its measured A*0201 (binding information).
OUT: 0.0006

====

# target: HLA-A*0301 (Homo sapiens, UniProt P04439)
# Construct: endogenous in cells; host or cells: GM3107
# test.summary: purified HLA class I binding assay, A*0301
# reported.conditions: Table XVI; HIV POL-derived peptides; unit not given
endpoint.name: A0301 (binding information, HIV A03 motif peptides)
Just the number, please, no unit after it.

QIYQIEPFKNLK; 0.2800
GIIQAQVDK; 0.0009
WTYQIYQEPF; 0.9200
DVKQLTEAVQ; 0.0048

The record that follows has no A0301 (binding information, HIV A03 motif peptides) shown yet.
IN: Consider the sequence LGIIQAQVDK and give its measured A0301 (binding information, HIV A03 motif peptides).
OUT: 0.0007

====

# target: HLA-A*0301 (Homo sapiens)
# Construct: endogenous in cells; host or cells: GM3107
# test.summary: purified HLA class I binding assay, A*0301
# reported.conditions: HIV A03 supermotif peptides, Table IX; unit not given
endpoint.name: A*0301 binding information
Just the number, please, no unit after it.

Sample answers from the record:
YVDRIFYKTLR; 0.0003
QMVIIQAISPR; 0.0260
LLQLIVWGIK; 0.0055
TVQCTIIGIR; 0.0008
QARYLAVER; 0.0009

IN: Consider the sequence ATLYCVIIQR and give its measured A*0301 binding information.
OUT: 0.0150

IN: Consider the sequence TVQCTIIGIK and give its measured A*0301 binding information.
OUT: 0.0021

====

# target: HLA-DRB1*1302 (DR6w19) (Homo sapiens, UniProt P01903+P01911, A100E/A169T/K41T/L162R/M171V/P40S/Q125H/Q178H/Q39Y/Q99D/R42S/S66N/T262R/V115G/W38E/Y61H)
# Sequence (P01903 26-254 limits assumed, other chains not shown): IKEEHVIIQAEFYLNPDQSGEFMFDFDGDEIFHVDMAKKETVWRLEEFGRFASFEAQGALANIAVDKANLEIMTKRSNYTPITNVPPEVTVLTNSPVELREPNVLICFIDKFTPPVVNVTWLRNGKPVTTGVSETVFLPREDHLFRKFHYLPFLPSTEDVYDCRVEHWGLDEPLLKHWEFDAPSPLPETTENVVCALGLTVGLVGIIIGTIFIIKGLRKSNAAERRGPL
# test.summary: purified HLA class II binding assay, DRB1*1302 (DR6w19)
Below is a list of entries, each paired with its recorded IC50 value.

Sample answers from the record:
CC[C@H](C)[C@H](NC(=O)CNC(=O)[C@H](CCCCN)NC(=O)[C@H](Cc1c[nH]cn1)NC(=O)[C@H](C)NC(=O)[C@@H]1CCCN1C(=O)[C@@H](NC(=O)[C@H](Cc1c[nH]c2ccccc12)NC(=O)[C@H](C)NC(=O)[C@H](CC(C)C)NC(=O)[C@H](Cc1ccc(O)cc1)NC(=O)[C@@H](NC(=O)[C@H](CCCCN)NC(=O)[C@@H](N)CCC(=O)O)C(C)C)C(C)C)C(=O)NCC(=O)O [Peptide 27.0361]; 3500 nM
CC[C@H](C)[C@H](NC(=O)[C@H](C)NC(=O)[C@@H]1CCCN1C(=O)[C@@H](N)CO)C(=O)N[C@@H](Cc1ccccc1)C(=O)N[C@@H](CCC(N)=O)C(=O)N[C@@H](CO)C(=O)N[C@@H](CO)C(=O)N[C@@H](CCSC)C(=O)N[C@H](C(=O)N[C@@H](CCCCN)C(=O)N[C@H](C(=O)N[C@@H](CC(C)C)C(=O)N[C@@H](CCC(=O)O)C(=O)N1CCC[C@H]1C(=O)O)[C@@H](C)CC)[C@@H](C)O [Peptide 27.0344]; 13 nM

The record that follows has no IC50 shown yet.
IN: Consider the molecule CC[C@H](C)[C@H](NC(=O)CNC(=O)[C@H](CCCCN)NC(=O)[C@H](Cc1c[nH]cn1)NC(=O)[C@H](C)NC(=O)[C@@H]1CCCN1C(=O)[C@@H](NC(=O)[C@H](Cc1c[nH]c2ccccc12)NC(=O)[C@H](C)NC(=O)[C@H](CC(C)C)NC(=O)[C@H](Cc1ccc(O)cc1)NC(=O)[C@@H](NC(=O)[C@@H](N)CCCCN)C(C)C)C(C)C)C(=O)NCC(=O)NCC(=O)O [Peptide 1280.03] and give its measured IC50.
OUT: 2500 nM

====

# target: HLA-A*0203 (Homo sapiens, UniProt P04439, A173T/D140Y/D185E/D98H/E277Q/G131W/G231S/I119V/I121R/I166T/I218V/L180W/L300P/L318F/N151K/N90K/P208A/P217A/Q86G/Q94H/R138H/R169H/T345S)
# test.summary: purified HLA class I binding assay, A*0203
pIC50: −log10 of the molar value.
Decision: pIC50 >= 7 yields Criterion met, all other cases yield Criterion not met.

Would you please look over these solved cases?
CC[C@H](C)[C@H](NC(=O)CNC(=O)[C@H](Cc1c[nH]c2ccccc12)NC(=O)[C@@H](NC(=O)[C@@H](NC(=O)[C@H](CC(C)C)NC(=O)[C@H](CCC(N)=O)NC(=O)[C@H](CC(C)C)NC(=O)[C@@H](N)CC(C)C)[C@@H](C)O)C(C)C)C(=O)O [Peptide 1261.02]; Criterion met
CSCC[C@H](NC(=O)[C@H](C)NC(=O)[C@H](CCC(=O)O)NC(=O)[C@H](C)NC(=O)[C@H](CC(C)C)NC(=O)[C@@H](N)C(C)C)C(=O)N[C@@H](CO)C(=O)N[C@@H](CCC(N)=O)C(=O)N[C@H](C(=O)O)C(C)C [Peptide 1069.32]; Criterion met
CSCC[C@H](NC(=O)[C@H](C)NC(=O)[C@@H](N)CCCNC(=N)N)C(=O)N[C@@H](C)C(=O)N[C@@H](CO)C(=O)N[C@@H](CC(=O)O)C(=O)N[C@@H](Cc1ccccc1)C(=O)N[C@@H](CC(N)=O)C(=O)N[C@@H](CC(C)C)C(=O)O; Criterion not met

IN: Does the reported pIC50 for CSCC[C@H](N)C(=O)N[C@@H](C)C(=O)N[C@@H](CO)C(=O)N[C@@H](CC(=O)O)C(=O)N[C@@H](Cc1ccccc1)C(=O)N[C@@H](CC(N)=O)C(=O)N[C@@H](CC(C)C)C(=O)N1CCC[C@H]1C(=O)N1CCC[C@H]1C(=O)N[C@H](C(=O)O)C(C)C [Peptide 1261.15] fall at or above the 7 mark?
OUT: Criterion met

IN: Does the reported pIC50 for CC[C@H](C)[C@H](NC(=O)[C@H](Cc1ccccc1)NC(=O)CNC(=O)CNC(=O)[C@@H](NC(=O)CNC(=O)CNC(=O)[C@@H](NC(=O)[C@H](CCSC)NC(=O)[C@@H](N)CCCCN)[C@@H](C)CC)[C@@H](C)CC)C(=O)O [Peptide 1261.17] fall at or above the 7 mark?
OUT: Criterion met

IN: Does the reported pIC50 for CC[C@H](C)[C@H](NC(=O)[C@H](CC(N)=O)NC(=O)[C@@H](NC(=O)[C@@H]1CCCN1C(=O)[C@@H](NC(=O)[C@@H]1CCCN1C(=O)CNC(=O)[C@@H](NC(=O)[C@@H](N)CC(C)C)C(C)C)[C@@H](C)O)C(C)C)C(=O)O [Peptide 1261.09] fall at or above the 7 mark?
OUT: Criterion met

IN: Does the reported pIC50 for CC(C)C[C@H](NC(=O)[C@H](CCCCN)NC(=O)[C@H](Cc1ccccc1)NC(=O)[C@H](CS)NC(=O)[C@H](Cc1c[nH]c2ccccc12)NC(=O)CNC(=O)[C@H](Cc1ccccc1)NC(=O)[C@@H](NC(=O)[C@@H](N)CC(C)C)[C@@H](C)O)C(=O)O [Peptide 1261.04] fall at or above the 7 mark?
OUT: Criterion not met
